B1: TPR t1 (parent)
chain: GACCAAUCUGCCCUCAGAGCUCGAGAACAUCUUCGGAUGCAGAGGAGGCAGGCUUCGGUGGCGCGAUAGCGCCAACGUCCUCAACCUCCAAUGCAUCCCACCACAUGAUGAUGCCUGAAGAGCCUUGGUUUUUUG

- Variants of: B1
- TEST: polymerase ribozyme fitness, log enrichment relative to wild type (log ratio); higher = more active; in vitro selection for triplet polymerase activity
Response field class: string, computed from recorded polymerase ribozyme fitness (log ratio) by ranges low value: < -4; medium value: ≥ -4 and < -1; high value: ≥ -1

Examples from the recorded data:
State the class of the variant shown: C12U A50U C73U U125A
high value

State the class of the variant shown: G61A U112C U129A
high value

---
State the class of the variant shown: A2C G71A C82A
medium value

State the class of the variant shown: G61U C123U
high value

State the class of the variant shown: A5C C82A U126G
high value

State the class of the variant shown: G44U C64U C82U U106G G120A
medium value

State the class of the variant shown: C8U C72A C98U U116A G128C
low value

State the class of the variant shown: C31G C98G G110U
low value

State the class of the variant shown: C13A G61C
medium value

State the class of the variant shown: A18U A43U C101G
medium value
